Cited source: ChEMBL document CHEMBL2385036

System: Staphylococcus aureus
Assay: Antimicrobial activity against methicillin-resistant Staphylococcus aureus GU 34380 after 7 days by broth microdilution method
Assay type: functional
Conditions: GU 34380, 168 h
assay-metric: MIC (µg/mL)
Give bare numbers, in µg/mL.

Reported MIC ( CC(CCCCCCCCC(=O)CCCCCCCCC[C@@H](O)CO[C@@H]1O[C@H](CO)[C@@H](O)[C@H](O)[C@H]1O)C(=O)C1=C(O)C(Cc2ccc(O)cc2)=NC1=O (some centres not stated) ) = 14

----------
Test system: Cryptococcus neoformans
Experiment: Antifungal activity against Cryptococcus neoformans after 7 days by broth microdilution method
Assay type: functional
Conditions: 168 h
assay-metric: MIC

MIC value, target or system Cryptococcus neoformans, for CC1=CC[C@H]([C@](C)(O)CCC(O)C(C)(C)O)CC1 (stereo partly specified) : > 118 µg/mL

----------
Kindly supply the reported MIC values for the records listed here.
Test system: Staphylococcus aureus
Assay: Antimicrobial activity against methicillin-resistant Staphylococcus aureus GU 34864 after 7 days by broth microdilution method
Assay type: functional
Settings: GU 34864, 168 h
One number for each entry, in µg/mL.

Examples with their reported MIC follow.
INSERT INTO results (compound, target, endpoint_result) VALUES
  ('CC(CCCCCCCCC(=O)CCCCCCCCC[C@@H](O)CO[C@@H]1O[C@H](CO)[C@@H](O)[C@H](O)[C@H]1O)C(=O)C1=C(O)C(Cc2ccc(O)cc2)=NC1=O (some centres undefined)', 'Staphylococcus aureus', 14),
  ('CC(CCCCCCCCC(=O)CCCCCCCCCC(O)CO[C@@H]1O[C@H](CO)[C@@H](O)[C@H](O)[C@@H]1O)C(=O)C1=C(O)C(Cc2ccc(O)cc2)NC1=O (some centres undefined)', 'Staphylococcus aureus', 7.2);

Now consider a different compound.
Recorded MIC (compound CC(CCCCCCCCC(=O)CCCCCCCCC[C@@H](O)CO)C(=O)C1=C(O)[C@H](Cc2ccc(O)cc2)NC1=O (some centres undefined) ): 2.8

----------
Tested on: Staphylococcus aureus
Experiment: Antimicrobial activity against methicillin-resistant Staphylococcus aureus DA 1 after 7 days by broth microdilution method
Type: functional
Settings: DA 1, 168 h
assay-metric: MIC

Known results for molecules:
INSERT INTO measurements (molecule, assay_metric, endpoint_result) VALUES
  ('CC(CCCCCCCCC(=O)CCCCCCCCCC(O)CO[C@@H]1O[C@H](CO)[C@@H](O)[C@H](O)[C@@H]1O)C(=O)C1=C(O)C(Cc2ccc(O)cc2)NC1=O (stereo partly drawn)', 'MIC', '7.2 µg/mL'),
  ('CC1=CC[C@H]([C@](C)(O)CCC(O)C(C)(C)O)CC1 (stereo partly drawn)', 'MIC', '> 118 µg/mL');

Please turn your attention to the following entry.
The reported MIC of the molecule CC[C@H](C)[C@@H](NC(=O)[C@@](C)(CC)NC(=O)[C@@H]1C[C@@H](O)CN1C(=O)[C@@](C)(CC)NC(=O)[C@@](C)(CC)NC(=O)C(C)(C)NC(=O)[C@@H]1C[C@@H](O)CN1C(=O)[C@@](C)(CC)NC(=O)[C@H](CC(C)C)NC(=O)[C@@H]1C[C@@H](O)CN1C(=O)[C@](C)(CC)NC(=O)[C@H](CC(C)C)NC(=O)[C@@H]1C[C@@H](O)CN1C(=O)C(C)(C)NC(C)=O)C(=O)O[C@@H]([C@H](O)[C@H](O)CO)[C@H](O)CO was > 118 µg/mL

----------
Test system: MCF7
Assay: Cytotoxicity against human MCF7 cells after 72 hrs by MTS assay
Assay type: functional, cell-based
Conditions: MCF7, 72 h
pIC50: −log10 of the molar value.
assay-metric: pIC50

The molecule identified as CC(=O)c1coc(=O)c2c(O)cc(O)c(C)c12 registered its pIC50 at < 5.00

----------
Test system: Staphylococcus aureus
Assay: Antimicrobial activity against methicillin-resistant Staphylococcus aureus GU 34864 after 7 days by broth microdilution method
Assay type: functional
Settings: GU 34864, 168 h
Please provide measured MIC for the entries that follow.

INSERT INTO results (compound, assay_metric, endpoint_result) VALUES
  ('CC[C@H](C)[C@@H](NC(=O)[C@@](C)(CC)NC(=O)[C@@H]1C[C@@H](O)CN1C(=O)[C@@](C)(CC)NC(=O)[C@@](C)(CC)NC(=O)C(C)(C)NC(=O)[C@@H]1C[C@@H](O)CN1C(=O)[C@@](C)(CC)NC(=O)[C@H](CC(C)C)NC(=O)[C@@H]1C[C@@H](O)CN1C(=O)[C@](C)(CC)NC(=O)[C@H](CC(C)C)NC(=O)[C@@H]1C[C@@H](O)CN1C(=O)C(C)(C)NC(C)=O)C(=O)O[C@@H]([C@H](O)[C@H](O)CO)[C@H](O)CO', 'MIC', '> 118 µg/mL'),
  ('CN[C@H](CC(C)C)C(=O)N[C@H]1C(=O)N[C@@H](CC(N)=O)C(=O)N[C@H]2C(=O)N[C@H]3C(=O)N[C@H](C(=O)N[C@H](C(=O)O)c4cc(O)cc(O)c4-c4cc3ccc4O)[C@H](O)c3ccc(c(Cl)c3)Oc3cc2cc(c3O[C@@H]2O[C@H](CO)[C@@H](O)[C@H](O)[C@H]2O[C@H]2C[C@](C)(N)[C@H](O)[C@H](C)O2)Oc2ccc(cc2Cl)[C@H]1O', 'MIC', '0.38 µg/mL');

// next item, MIC requested
The compound CC1=CC[C@H]([C@](C)(O)CCC(O)C(C)(C)O)CC1 (stereo partly drawn) , tested on Staphylococcus aureus, showed MIC of > 118 µg/mL

----------
Test system: Candida albicans
Assay: Antifungal activity against Candida albicans after 7 days by broth microdilution method
Assay type: functional
Details: 168 h
Provide the recorded MIC for the entries that follow.

Answered examples (2):
INSERT INTO assay_data (compound, endpoint_result) VALUES
  ('CC1=CC[C@H]([C@](C)(O)CCC(O)C(C)(C)O)CC1 (some centres not stated)', '> 118 µg/mL'),
  ('C[C@@H]1[C@H](O)[C@@H](C)/C=C/C=C/C=C/C=C/C=C/C=C/C=C/[C@H](O[C@@H]2O[C@H](C)[C@@H](O)[C@H](N)[C@@H]2O)C[C@@H]2O[C@](O)(C[C@@H](O)C[C@@H](O)[C@H](O)CC[C@@H](O)C[C@@H](O)CC(=O)O[C@H]1C)C[C@H](O)[C@H]2C(=O)O', '25 µg/mL');

Working through the 5 compounds below one at a time, give MIC for each.
1. CC(CCCCCCCCC(=O)CCCCCCCCC[C@@H](O)CO[C@@H]1O[C@H](CO)[C@@H](O)[C@H](O)[C@H]1O)C(=O)C1=C(O)C(Cc2ccc(O)cc2)=NC1=O (some centres not stated)
2. CC(CCCCCCCCC(=O)CCCCCCCCCC(O)CO[C@@H]1O[C@H](CO)[C@@H](O)[C@H](O)[C@@H]1O)C(=O)C1=C(O)C(Cc2ccc(O)cc2)NC1=O (some centres not stated)
3. CC[C@H](C)[C@@H](NC(=O)[C@@](C)(CC)NC(=O)[C@@H]1C[C@@H](O)CN1C(=O)[C@@](C)(CC)NC(=O)[C@@](C)(CC)NC(=O)C(C)(C)NC(=O)[C@@H]1C[C@@H](O)CN1C(=O)[C@@](C)(CC)NC(=O)[C@H](CC(C)C)NC(=O)[C@@H]1C[C@@H](O)CN1C(=O)[C@](C)(CC)NC(=O)[C@H](CC(C)C)NC(=O)[C@@H]1C[C@@H](O)CN1C(=O)C(C)(C)NC(C)=O)C(=O)O[C@@H]([C@H](O)[C@H](O)CO)[C@H](O)CO
4. CC(CCCCCCCCC(=O)CCCCCCCCC[C@@H](O)CO)C(=O)C1=C(O)[C@H](Cc2ccc(O)cc2)NC1=O (some centres not stated)
5. CC[C@H](C)[C@@H](NC(=O)[C@@](C)(CC)NC(=O)[C@@H]1C[C@@H](O)CN1C(=O)C(C)(C)NC(=O)[C@@](C)(CC)NC(=O)C(C)(C)NC(=O)[C@@H]1C[C@@H](O)CN1C(=O)[C@@](C)(CC)NC(=O)[C@H](CC(C)C)NC(=O)[C@@H]1C[C@@H](O)CN1C(=O)[C@](C)(CC)NC(=O)[C@H](CC(C)C)NC(=O)[C@@H]1C[C@@H](O)CN1C(=O)C(C)(C)NC(C)=O)C(=O)O[C@@H]([C@H](O)[C@H](O)CO)[C@H](O)CO

Reply:
1: > 55 µg/mL; 2: 14.4 µg/mL; 3: > 118 µg/mL; 4: > 88 µg/mL; 5: > 118 µg/mL

----------
Can you tell me MIC for the items I'm about to list?
Tested on: Staphylococcus aureus
Experiment: Antimicrobial activity against methicillin-resistant Staphylococcus aureus DA 1 after 7 days by broth microdilution method
Type: functional
Settings: DA 1, 168 h
Numbers only, in µg/mL.

Example cases with answers are listed next.
INSERT INTO measurements (compound, assay_metric, endpoint_result) VALUES
  ('CN[C@H](CC(C)C)C(=O)N[C@H]1C(=O)N[C@@H](CC(N)=O)C(=O)N[C@H]2C(=O)N[C@H]3C(=O)N[C@H](C(=O)N[C@H](C(=O)O)c4cc(O)cc(O)c4-c4cc3ccc4O)[C@H](O)c3ccc(c(Cl)c3)Oc3cc2cc(c3O[C@@H]2O[C@H](CO)[C@@H](O)[C@H](O)[C@H]2O[C@H]2C[C@](C)(N)[C@H](O)[C@H](C)O2)Oc2ccc(cc2Cl)[C@H]1O [VANCOMYCIN]', 'MIC', 0.25),
  ('CC(CCCCCCCCC(=O)CCCCCCCCC[C@@H](O)CO)C(=O)C1=C(O)[C@H](Cc2ccc(O)cc2)NC1=O (some centres undefined) [VIRGINEONE AGLYCONE]', 'MIC', 2.8);

Now for a further compound.
Record CC(CCCCCCCCC(=O)CCCCCCCCC[C@@H](O)CO[C@@H]1O[C@H](CO)[C@@H](O)[C@H](O)[C@H]1O)C(=O)C1=C(O)C(Cc2ccc(O)cc2)=NC1=O (some centres undefined) , field MIC: 14
